Biological target: UniProt O43175
Sequence (O43175 2-533 limits assumed): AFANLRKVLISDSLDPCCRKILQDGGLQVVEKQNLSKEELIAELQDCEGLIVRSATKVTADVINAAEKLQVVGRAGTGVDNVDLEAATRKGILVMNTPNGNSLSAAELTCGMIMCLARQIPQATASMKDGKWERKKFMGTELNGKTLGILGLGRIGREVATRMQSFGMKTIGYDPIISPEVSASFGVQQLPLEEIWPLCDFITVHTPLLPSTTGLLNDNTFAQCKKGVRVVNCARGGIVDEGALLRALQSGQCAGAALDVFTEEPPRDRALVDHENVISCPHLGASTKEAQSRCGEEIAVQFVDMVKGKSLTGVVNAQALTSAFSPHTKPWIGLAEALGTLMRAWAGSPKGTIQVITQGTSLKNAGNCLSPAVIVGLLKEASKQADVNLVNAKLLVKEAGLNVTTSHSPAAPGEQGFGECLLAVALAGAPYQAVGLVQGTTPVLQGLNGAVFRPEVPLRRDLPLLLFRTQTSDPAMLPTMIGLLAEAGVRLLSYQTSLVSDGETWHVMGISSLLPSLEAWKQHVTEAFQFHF
Assay: 3-Phosphoglycerate Dehydrogenase (PHGDH) Fluorescence Intensity Assay, run at two NAD/3-PG ratios: PHGDH_HIGH_NAD/3-PG (250 μM NAD/500 μM 3-PG) and PHGDH_500_NAD/3-PG (500 μM NAD/500 μM 3-PG)
Format: biochemical
Conditions: 250 μM NAD/500 μM 3-PG; read-out: IC50 (PHGDH_HIGH_NAD/3-PG)
pIC50: −log10 of the molar value.
Threshold rule: pIC50 greater than or equal to 6 is Satisfied; below that, Not satisfied.

Request: Given the entry Cc1cc2c(cc(C(=O)N[C@H](CO)c3ccc(S(=O)(=O)CC(=O)O)cc3)n2C)c(Cl)c1Cl [Example 03-006] , answer whether its pIC50 meets or surpasses 6.
Response: Satisfied

Request: Given the entry COC(=O)C[S+]([O-])c1ccc([C@@H](C)NC(=O)c2cc3c(Cl)cc(C)cc3n2C)cc1 (stereo partly shown) [Example 11-009] , answer whether its pIC50 meets or surpasses 6.
Response: Satisfied

Request: Given the entry CC(C)OC(=O)C(C)(C)S(=O)(=O)c1ccc([C@@H](CO)NC(=O)c2cc(-c3ccc(F)cc3)nn2C)cc1 [Example 06-006] , answer whether its pIC50 meets or surpasses 6.
Response: Not satisfied

Request: Given the entry Cc1cc(Cl)c2cc(C(=O)N[C@H](CO)c3ccc(S(=O)(=O)CC(=O)OCC4COC4)cc3)n(C)c2c1 [Example 09-035] , answer whether its pIC50 meets or surpasses 6.
Response: Satisfied

Request: Given the entry COc1cc(-c2cc(C(=O)N[C@H](C)c3ccc(S(=O)(=O)CC(=O)OC(C)C)cc3)n(C)n2)ccc1F [Example 02-012] , answer whether its pIC50 meets or surpasses 6.
Response: Not satisfied

Request: Given the entry Cc1cc(Cl)c2cc(C(=O)N[C@H](C)c3ccc(S(=O)(=O)C(C)(C)C(=O)OC(C)C)cc3)n(C)c2c1 [Example 05-012] , answer whether its pIC50 meets or surpasses 6.
Response: Not satisfied

Request: Given the entry Cc1cc(Cl)c2cc(C(=O)N[C@H](C)c3ccc(S(=O)(=O)CC(=O)OC(C)C)cc3)n(C)c2c1 [Example 01-024] , answer whether its pIC50 meets or surpasses 6.
Response: Not satisfied

Request: Given the entry CC(NC(=O)c1cc2c(Cl)cc(I)cc2n1C)c1ccc(S(=O)(=O)CC(=O)O)cc1 (stereo not shown) [Example 03-008] , answer whether its pIC50 meets or surpasses 6.
Response: Satisfied

Request: Given the entry Cc1cc2c(cc(C(=O)N[C@H](CO)c3ccc(S(=O)(=O)CC(=O)OC(C)C)cc3)n2C)c(Cl)c1F [Example 01-035] , answer whether its pIC50 meets or surpasses 6.
Response: Satisfied

Request: Given the entry Cc1cc(Cl)c2cc(C(=O)N[C@H](CO)c3ccc(S(=O)(=O)CC(=O)OC4CCOCC4)cc3)n(C)c2c1 [Example 09-028] , answer whether its pIC50 meets or surpasses 6.
Response: Satisfied

Request: Given the entry Cc1cc(Cl)c2cc(C(=O)N[C@H](CO)c3ccc(S(=O)(=O)CC(=O)OCC4(C)COC4)cc3)n(C)c2c1 [Example 09-031] , answer whether its pIC50 meets or surpasses 6.
Response: Satisfied

Request: Given the entry CCOC(=O)C(C)(C)S(=O)(=O)c1ccc([C@@H](C)NC(=O)c2cc3c(Cl)cc(C)cc3n2C)cc1 [Example 05-003] , answer whether its pIC50 meets or surpasses 6.
Response: Not satisfied

Request: Given the entry C[C@@H](NC(=O)c1cc(-c2ccc(F)cc2)nn1C)c1ccc(S(=O)(=O)C2(C(=O)O)CCCC2)cc1 [Example 08-002] , answer whether its pIC50 meets or surpasses 6.
Response: Satisfied

Request: Given the entry Cc1cc(Cl)c2cc(C(=O)N[C@H](C)c3ccc(S(=O)(=O)CC(=O)OC(C)C)cc3)n(C)c2n1 [Example 01-036] , answer whether its pIC50 meets or surpasses 6.
Response: Not satisfied

Request: Given the entry Cc1cc(Cl)c2cc(C(=O)N[C@H](C)c3ccc(S(=O)(=O)CC(=O)O[C@H]4CCOC4)cc3)n(C)c2c1 [Example 09-018] , answer whether its pIC50 meets or surpasses 6.
Response: Satisfied

Request: Given the entry Cc1cc(Cl)c2cc(C(=O)N[C@H](CO)c3ccc(S(=O)(=O)CC(=O)O)cc3)n(C)c2n1 [Example 03-013] , answer whether its pIC50 meets or surpasses 6.
Response: Satisfied

Request: Given the entry CO[C@@H](C)COC(=O)CS(=O)(=O)c1ccc([C@@H](C)NC(=O)c2cc3c(Cl)cc(C)cc3n2C)cc1 [Example 09-004] , answer whether its pIC50 meets or surpasses 6.
Response: Satisfied
